Biological target: T1, human GLP-2R (glucagon-like peptide-2 receptor) (human, UniProt O95838 1-553)
T1 sequence (looked up): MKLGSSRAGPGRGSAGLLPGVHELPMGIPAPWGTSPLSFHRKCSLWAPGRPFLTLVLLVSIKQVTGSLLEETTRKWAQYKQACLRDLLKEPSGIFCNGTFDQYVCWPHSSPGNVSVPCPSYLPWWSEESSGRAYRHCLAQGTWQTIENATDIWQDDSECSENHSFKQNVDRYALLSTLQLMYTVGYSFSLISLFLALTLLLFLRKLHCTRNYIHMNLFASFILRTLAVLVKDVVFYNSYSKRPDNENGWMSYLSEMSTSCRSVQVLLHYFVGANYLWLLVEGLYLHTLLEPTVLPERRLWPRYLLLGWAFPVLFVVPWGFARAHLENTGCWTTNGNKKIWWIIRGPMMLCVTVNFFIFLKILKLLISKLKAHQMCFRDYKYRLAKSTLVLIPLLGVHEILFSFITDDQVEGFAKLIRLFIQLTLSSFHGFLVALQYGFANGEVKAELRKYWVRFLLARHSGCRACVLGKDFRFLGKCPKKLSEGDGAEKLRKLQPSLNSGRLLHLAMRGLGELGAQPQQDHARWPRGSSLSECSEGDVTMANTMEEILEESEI
Test: cell-based or functional assay
Where no end group is shown, it is not given here. The star is where a group is joined. Palmitoyl = CCCCCCCCCCCCCCCC(=O)*
Consider the following binders; for each one, report its cAMP assay: Efficacy GLP-2R.
Write the number in % without appending the unit.

Qu. Param item = Palmitoyl-HADGTFISDYSTILDNLAARDFINWLIATKITKNDWKHNITQ [Compound no. 52] ; retrieve measured cAMP assay: Efficacy GLP-2R.
Ans. 68

Qu. Param item = Palmitoyl-HADGTFISDYSTILDELAARDFINWLIQTKITKNDWKHNITQ [Compound no. 48] ; retrieve measured cAMP assay: Efficacy GLP-2R.
Ans. 69

Qu. Param item = Palmitoyl-HADGTFISDYSTILDNLAARDFIEWLIQTKITKNDWKHNITQ [Compound no. 50] ; retrieve measured cAMP assay: Efficacy GLP-2R.
Ans. 70

Source listed as patent US20250304643A1.
